Biological target: Angiotensin II receptor (AT-1) type-1 (Rattus norvegicus, UniProt P29089+P25095)
Assay: Inhibitory concentration was evaluated by measuring displacement of [3H]AII from rat liver Angiotensin II receptor, type 1
MEASURED ENDPOINT: IC50 (nM)
Give the quantity in nM, number only.

Previously resolved entries follow.
> print(dat)
                                   compound  measured.endpoint  display.unit  test.value
1  CCc1nc2c(C)cc(C)nc2n1Cc1ccc(C(c2ccccc2)C(C)C(=O)O)cc1 (stereo not drawn)               IC50            nM          71
2  CCc1nc2c(C)cc(C)nc2n1Cc1ccc([C@H](c2ccccc2)[C@@H](CC)C(=O)O)cc1               IC50            nM         450
3  CCc1nc2c(C)cc(C)nc2n1Cc1ccc(C(CC(=O)O)c2ccccc2Cl)cc1 (stereo not drawn)               IC50            nM         200
4  CCc1nc2c(C)cc(C)nc2n1Cc1ccc([C@H](c2ccccc2)[C@@H](C)C(=O)O)o1               IC50            nM        5600
5  CCc1nc2c(C)cc(C)nc2n1Cc1ccc(C(c2ccccc2)C(C(=O)O)C(=O)O)cc1 (stereo not drawn)               IC50            nM         120

Give the reported value of IC50 for this record: CCc1nc2c(C)cc(C)nc2n1Cc1ccc(/C(=C(/Br)c2nn[nH]n2)c2ccccc2)cc1 (stereo in doubt; 22c)
44

Give the reported value of IC50 for this record: CCc1nc2c(C)cc(C)nc2n1Cc1ccc([C@H](c2ccccc2)[C@H](C)C(=O)O)cc1 (stereo in doubt; (+36)g)
71

Give the reported value of IC50 for this record: CCc1nc2c(C)cc(C)nc2n1Cc1ccc([C@H](c2ccccc2)[C@@H](C)C(=O)O)cc1 (stereo in doubt; 37g)
250

Give the reported value of IC50 for this record: CCc1nc2c(C)cc(C)nc2n1Cc1ccc(C(CC(=O)O)c2ccccc2)cc1 (stereo not drawn)
110

Give the reported value of IC50 for this record: CCc1nc2c(C)cc(C)nc2n1Cc1ccc(/C(=C(/Br)c2nn[nH]n2)c2ccccc2)cc1 (stereo in doubt; 22d)
290

----------
Catalogue of IC50 readings, one per entry.
Biological target: Angiotensin II receptor (AT-1) type-1 (Rattus norvegicus, UniProt P29089+P25095)
Experiment: Inhibitory concentration was evaluated by measuring displacement of [3H]AII from rat liver Angiotensin II receptor, type 1
Give the quantity in nM, number only.

> print(dat)
                                   compound  test.value
1  CCc1nc2c(C)cc(C)nc2n1Cc1ccc(C(c2ccccc2)C(CC)C(=O)O)cc1 (stereo not given)          78
2  CCc1nc2c(C)cc(C)nc2n1Cc1ccc(C(c2ccccc2)C(C)(C)C(=O)O)cc1 (stereo not given)         240

Turning to the following compound.
Give the reported value of IC50 for this record: CCc1nc2c(C)cc(C)nc2n1Cc1ccc(/C(=C\c2nn[nH]n2)c2ccccc2)cc1 (stereo in doubt; 22a)
92

----------
Target: Angiotensin II receptor (AT-1) type-1 (Rattus norvegicus, UniProt P29089+P25095)
Test: Inhibitory concentration was evaluated by measuring displacement of [3H]AII from rat liver Angiotensin II receptor, type 1
MEASURED ENDPOINT: log10(IC50) (log10 of the value in nM)
A value of 2 here means IC50 of 100 in nM, since values are log10.

Previously resolved entries follow.
> print(dat)
                                   compound                              study.target  test.value
1  CCc1nc2c(C)cc(C)nc2n1Cc1ccc(C(Cc2nnn[nH]2)c2ccccc2)cc1 (stereo not drawn)  Angiotensin II receptor (AT-1) type-1 (Rattus norvegicus, UniProt P29089+P25095)        2.08
2  CCc1nc2c(C)cc(C)nc2n1Cc1ccc([C@H](c2ccccc2)[C@@H](C)C(=O)O)cc1 (stereo in doubt; (+)37g)  Angiotensin II receptor (AT-1) type-1 (Rattus norvegicus, UniProt P29089+P25095)        2.64
3  CCc1nc2c(C)cc(C)nc2n1Cc1ccc(/C(=C\C(=O)O)c2ccccc2)cc1 (stereo in doubt; 12B)  Angiotensin II receptor (AT-1) type-1 (Rattus norvegicus, UniProt P29089+P25095)        2.23
4  CCc1nc2c(C)cc(C)nc2n1Cc1ccc(C(CC(=O)O)c2ccc(-c3ccncc3)cc2)cc1 (stereo not drawn)  Angiotensin II receptor (AT-1) type-1 (Rattus norvegicus, UniProt P29089+P25095)        3.72
5  CCc1nc2c(C)cc(C)nc2n1Cc1ccc(/C(=C\c2nn[nH]n2)c2ccccc2)cc1 (stereo in doubt; 22b)  Angiotensin II receptor (AT-1) type-1 (Rattus norvegicus, UniProt P29089+P25095)        2.11
6  CCc1nc2c(C)cc(C)nc2n1Cc1ccc(C(c2ccccc2C)C(C(=O)O)C(=O)O)cc1 (stereo not drawn)  Angiotensin II receptor (AT-1) type-1 (Rattus norvegicus, UniProt P29089+P25095)        2.32

Give the reported value of log10(IC50) for this record: CCc1nc2c(C)cc(C)nc2n1Cc1ccc(C(c2ccc(C)cc2)C(C(=O)O)C(=O)O)cc1 (stereo not drawn)
3.04

Give the reported value of log10(IC50) for this record: CCc1nc2c(C)cc(C)nc2n1Cc1ccc([C@H](c2ccccc2)[C@@H](C)C(=O)O)cc1 (stereo in doubt; (-)37g)
2.26

Give the reported value of log10(IC50) for this record: CCc1nc2c(C)cc(C)nc2n1Cc1ccc(C(c2ccccc2)C(Cc2ccccc2)C(=O)O)cc1 (stereo not drawn)
2.30

----------
Catalogue of IC50 readings, one per entry.
Biological target: Angiotensin II receptor (AT-1) type-1 (Rattus norvegicus, UniProt P29089+P25095)
Experiment: Inhibitory concentration was evaluated by measuring displacement of [3H]AII from rat liver Angiotensin II receptor, type 1
Give the quantity in µM, number only.

> print(dat)
                                    molecule                              study.target  test.value
 1  CCc1nc2c(C)cc(C)nc2n1Cc1ccc([C@H](c2ccccc2)[C@H](C)C(=O)O)cc1 (stereo in doubt; (-36)g)  Angiotensin II receptor (AT-1) type-1 (Rattus norvegicus, UniProt P29089+P25095)       0.076
 2  CCc1nc2c(C)cc(C)nc2n1Cc1ccc(/C(=C\C(=O)O)c2ccccc2)cc1 (stereo in doubt; 12A)  Angiotensin II receptor (AT-1) type-1 (Rattus norvegicus, UniProt P29089+P25095)        0.12
 3  CCc1nc2c(C)cc(C)nc2n1Cc1ccc([C@H](c2ccccc2)[C@H](CC)C(=O)O)cc1  Angiotensin II receptor (AT-1) type-1 (Rattus norvegicus, UniProt P29089+P25095)        0.05
 4  CCc1nc2c(C)cc(C)nc2n1Cc1ccc(C(c2ccccc2)C(C#N)C(=O)O)cc1 (centres undefined)  Angiotensin II receptor (AT-1) type-1 (Rattus norvegicus, UniProt P29089+P25095)        0.16
 5  CCc1nc2c(C)cc(C)nc2n1Cc1ccc(C(C(C)C)C(C)C(=O)O)cc1 (centres undefined)  Angiotensin II receptor (AT-1) type-1 (Rattus norvegicus, UniProt P29089+P25095)         0.6
 6  CCc1nc2c(C)cc(C)nc2n1Cc1ccc(C(CC(=O)NS(=O)(=O)c2ccccc2)c2ccccc2)cc1 (centres undefined)  Angiotensin II receptor (AT-1) type-1 (Rattus norvegicus, UniProt P29089+P25095)        0.36
 7  CCc1nc2c(C)cc(C)nc2n1Cc1ccc([C@H](c2ccccc2)[C@H](C)C(=O)O)o1  Angiotensin II receptor (AT-1) type-1 (Rattus norvegicus, UniProt P29089+P25095)         4.8
 8  CCc1nc2c(C)cc(C)nc2n1Cc1ccc([C@H](c2ccccc2)[C@H](C)C(=O)NS(C)(=O)=O)cc1  Angiotensin II receptor (AT-1) type-1 (Rattus norvegicus, UniProt P29089+P25095)       0.058
 9  CCc1nc2c(C)cc(C)nc2n1Cc1ccc(C(c2cccc(C)c2)C(C(=O)O)C(=O)O)cc1 (centres undefined)  Angiotensin II receptor (AT-1) type-1 (Rattus norvegicus, UniProt P29089+P25095)        0.45
10  CCc1nc2c(C)cc(C)nc2n1Cc1ccc(C(CC(=O)O)c2ccc(OC)cc2)cc1 (centres undefined)  Angiotensin II receptor (AT-1) type-1 (Rattus norvegicus, UniProt P29089+P25095)         3.7

Give the reported value of IC50 for this record: CCc1nc2c(C)cc(C)nc2n1Cc1ccc(C(c2ccccc2)C(Br)C(=O)O)cc1 (centres undefined)
0.17

Give the reported value of IC50 for this record: CCC[C@@H](C(=O)O)[C@@H](c1ccccc1)c1ccc(Cn2c(CC)nc3c(C)cc(C)nc32)cc1
0.59

Give the reported value of IC50 for this record: CCc1nc2c(C)cc(C)nc2n1Cc1ccc([C@H](c2ccccc2)[C@H](C)C(=O)O)cc1 (stereo in doubt; 36g)
0.069

Give the reported value of IC50 for this record: CCc1nc2c(C)cc(C)nc2n1Cc1ccc(C(CC(=O)O)c2ccc(F)cc2F)cc1 (centres undefined)
0.25
